test system: 876862-298-R-J1-PDC complex spheroids, viability % test/control; assay: Anticancer human tumor 876862-298-R-J1-PDC patient-derived endometrial carcinoma cell line growth inhibition [CLK]; conditions: second compound 1 µM; first compound 3.16 µM; hits give low values
Lab note - cut at 10% for viability, T/C: true if strictly below, false if not.

[
  {
    "COMPOUND": "CC(CO)NC(=O)c1cc(-c2ccc(Cl)cc2)nn(-c2cnn(C)c2)c1=O (configuration not stated) + CN1CCN(c2cc(C(=O)Nc3cc4cc(-c5cnn(C)c5)ccc4cn3)ccn2)CC1",
    "CLASS": "true"
  },
  {
    "COMPOUND": "COc1ccc([C@@H](O)c2cc(-c3ncnc4cc(N5CCOCC5)ccc34)c(F)cc2Cl)nn1 + CN1CCN(c2cc(C(=O)Nc3cc4cc(-c5cnn(C)c5)ccc4cn3)ccn2)CC1",
    "CLASS": "true"
  },
  {
    "COMPOUND": "O=C(c1cc(Cc2n[nH]c(=O)c3ccccc23)ccc1F)N1CCN(C(=O)C2CC2)CC1 + CN1CCN(c2cc(C(=O)Nc3cc4cc(-c5cnn(C)c5)ccc4cn3)ccn2)CC1",
    "CLASS": "true"
  },
  {
    "COMPOUND": "CC1COCCN1c1cc(C2(S(C)(=N)=O)CC2)nc(-c2ccnc3[nH]ccc23)n1 (configuration not stated) + CN1CCN(c2cc(C(=O)Nc3cc4cc(-c5cnn(C)c5)ccc4cn3)ccn2)CC1",
    "CLASS": "true"
  },
  {
    "COMPOUND": "CC(Nc1ccc2c(c1)OCCn1cc(N3C(=O)OCC3C(F)F)nc1-2)C(N)=O (configuration not stated) + CN1CCN(c2cc(C(=O)Nc3cc4cc(-c5cnn(C)c5)ccc4cn3)ccn2)CC1",
    "CLASS": "true"
  },
  {
    "COMPOUND": "CC1(C)CCC(CN2CCN(c3ccc(C(=O)NS(=O)(=O)c4ccc(NCC5CCOCC5)c([N+](=O)[O-])c4)c(Oc4cnc5[nH]ccc5c4)c3)CC2)=C(c2ccc(Cl)cc2)C1 + CNC(=O)c1ccc(Nc2nc(OC3CCCC3)c3c(-c4ccc5nc(C)oc5c4)c[nH]c3n2)c(OC)c1",
    "CLASS": "false"
  },
  {
    "COMPOUND": "COC1C=CCC(C)C(C)S(=O)(=O)NC(=O)c2ccc3c(c2)N(CC2CCC21)CC1(CCCc2cc(Cl)ccc21)CO3 (configuration not stated) + CNC(=O)c1ccc(Nc2nc(OC3CCCC3)c3c(-c4ccc5nc(C)oc5c4)c[nH]c3n2)c(OC)c1",
    "CLASS": "false"
  },
  {
    "COMPOUND": "CC1COCCN1c1cc(C2(S(C)(=N)=O)CC2)nc(-c2ccnc3[nH]ccc23)n1 (configuration not stated) + CNC(=O)c1ccc(Nc2nc(OC3CCCC3)c3c(-c4ccc5nc(C)oc5c4)c[nH]c3n2)c(OC)c1",
    "CLASS": "false"
  },
  {
    "COMPOUND": "C#Cc1c(F)ccc2cc(O)cc(-c3ncc4c(N5CC6CCC(C5)N6)nc(OCC56CCCN5CC(F)C6)nc4c3F)c12 (configuration not stated) + CNC(=O)c1ccc(Nc2nc(OC3CCCC3)c3c(-c4ccc5nc(C)oc5c4)c[nH]c3n2)c(OC)c1",
    "CLASS": "false"
  },
  {
    "COMPOUND": "COc1cccc2c1C(=O)c1c(O)c3c(c(O)c1C2=O)CC(O)(C(=O)CO)CC3OC1CC(N)C(O)C(C)O1 (configuration not stated) + CN1CCN(c2cc(C(=O)Nc3cc4cc(-c5cnn(C)c5)ccc4cn3)ccn2)CC1",
    "CLASS": "true"
  },
  {
    "COMPOUND": "COc1cccc2c1C(=O)c1c(O)c3c(c(O)c1C2=O)CC(O)(C(=O)CO)CC3OC1CC(N)C(O)C(C)O1 (configuration not stated) + CNC(=O)c1ccc(Nc2nc(OC3CCCC3)c3c(-c4ccc5nc(C)oc5c4)c[nH]c3n2)c(OC)c1",
    "CLASS": "true"
  },
  {
    "COMPOUND": "CC(=O)O[C@H]1C(=O)[C@@]2(C)[C@H]([C@H](OC(=O)c3ccccc3)[C@]3(O)C[C@H](OC(=O)[C@H](O)[C@@H](NC(=O)c4ccccc4)c4ccccc4)C(C)=C1C3(C)C)[C@]1(OC(C)=O)CO[C@@H]1C[C@@H]2O + CNC(=O)c1ccc(Nc2nc(OC3CCCC3)c3c(-c4ccc5nc(C)oc5c4)c[nH]c3n2)c(OC)c1",
    "CLASS": "false"
  }
]

----------
system: 876862-298-R-J1-PDC complex spheroids, viability % test/control; assay: Anticancer human tumor 876862-298-R-J1-PDC cell line growth inhibition [CLK]; conditions: second compound 1 µM; first compound 0.0316 µM; active = viability on the fitted dose curve at most 10% of control; inactive = the rest;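 note: spheroids exposed to drugs for 7 days before readout; 100% = DMSO vehicle control wells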
Outcome codes: 1 (yes) for active, 0 (no) for inactive

[
  {
    "COMPOUND": "C=C(F)C(=O)N1CCN(c2nc(OCC3CCCN3C)nc3c2CCN(c2cccc4cccc(Cl)c24)C3)CC1CC#N (stereo not given) + CN1CCN(c2cc(C(=O)Nc3cc4cc(-c5cnn(C)c5)ccc4cn3)ccn2)CC1",
    "ASSAY TARGET": "876862-298-R-J1-PDC complex spheroids, viability % test/control",
    "CLASS": "1 (yes)"
  },
  {
    "COMPOUND": "CCN1CCN(Cc2ccc(Nc3ncc(F)c(-c4cc(F)c5nc(C)n(C(C)C)c5c4)n3)nc2)CC1 + CNC(=O)c1ccc(Nc2nc(OC3CCCC3)c3c(-c4ccc5nc(C)oc5c4)c[nH]c3n2)c(OC)c1",
    "ASSAY TARGET": "876862-298-R-J1-PDC complex spheroids, viability % test/control",
    "CLASS": "0 (no)"
  },
  {
    "COMPOUND": "C=CC(=O)N1CCN(c2nc(=O)n(-c3c(C)ccnc3C(C)C)c3nc(-c4c(O)cccc4F)c(F)cc23)C(C)C1 (stereo not given) + CN1CCN(c2cc(C(=O)Nc3cc4cc(-c5cnn(C)c5)ccc4cn3)ccn2)CC1",
    "ASSAY TARGET": "876862-298-R-J1-PDC complex spheroids, viability % test/control",
    "CLASS": "1 (yes)"
  },
  {
    "COMPOUND": "C#Cc1c(F)ccc2cc(O)cc(-c3ncc4c(N5CC6CCC(C5)N6)nc(OCC56CCCN5CC(F)C6)nc4c3F)c12 (stereo not given) + CN1CCN(c2cc(C(=O)Nc3cc4cc(-c5cnn(C)c5)ccc4cn3)ccn2)CC1",
    "ASSAY TARGET": "876862-298-R-J1-PDC complex spheroids, viability % test/control",
    "CLASS": "1 (yes)"
  },
  {
    "COMPOUND": "COc1ccc([C@@H](O)c2cc(-c3ncnc4cc(N5CCOCC5)ccc34)c(F)cc2Cl)nn1 + CNC(=O)c1ccc(Nc2nc(OC3CCCC3)c3c(-c4ccc5nc(C)oc5c4)c[nH]c3n2)c(OC)c1",
    "ASSAY TARGET": "876862-298-R-J1-PDC complex spheroids, viability % test/control",
    "CLASS": "0 (no)"
  }
]

----------
tested on: 876862-298-R-J1-PDC complex spheroids, viability % test/control; experiment: Anticancer human tumor 876862-298-R-J1-PDC cell line growth inhibition [CLK]; details: second compound 0.1 µM; first compound 0.3 µM; hits give low values;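 note: spheroids exposed to drugs for 7 days before readout; 100% = DMSO vehicle control wells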
viability, T/C values for the compounds below.

[
  {
    "COMPOUND": "C=CC(=O)Nc1cc(Nc2nccc(-c3cn(C)c4ccccc34)n2)c(OC)cc1N(C)CCN(C)C + CN1CCN(c2cc(C(=O)Nc3cc4cc(-c5cnn(C)c5)ccc4cn3)ccn2)CC1",
    "viability, T/C": "30.7%"
  },
  {
    "COMPOUND": "NC(=O)C(=Cn1cnc(-c2cc(C(F)(F)F)cc(C(F)(F)F)c2)n1)c1cncnc1 + CNC(=O)c1ccc(Nc2nc(OC3CCCC3)c3c(-c4ccc5nc(C)oc5c4)c[nH]c3n2)c(OC)c1",
    "viability, T/C": "19.4%"
  },
  {
    "COMPOUND": "CC(C)CC(NC(=O)C(Cc1ccccc1)NC(=O)c1cnccn1)B(O)O (stereo not drawn) + CNC(=O)c1ccc(Nc2nc(OC3CCCC3)c3c(-c4ccc5nc(C)oc5c4)c[nH]c3n2)c(OC)c1",
    "viability, T/C": "0.42%"
  }
]

----------
tested on: 876862-298-R-J1-PDC complex spheroids, viability % test/control; test: Anticancer human tumor 876862-298-R-J1-PDC cell line growth inhibition [CLK]; settings: second compound 1 µM; first compound 0.0316 µM; hits give low values;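 note: spheroids exposed to drugs for 7 days before readout; 100% = DMSO vehicle control wells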
# Lookup of reported viability, T/C keyed by entry
ENDPOINT NAME: viability, T/C (%)

[
  {
    "COMPOUND": "CC1(C)CCC(CN2CCN(c3ccc(C(=O)NS(=O)(=O)c4ccc(NCC5CCOCC5)c([N+](=O)[O-])c4)c(Oc4cnc5[nH]ccc5c4)c3)CC2)=C(c2ccc(Cl)cc2)C1 + CNC(=O)c1ccc(Nc2nc(OC3CCCC3)c3c(-c4ccc5nc(C)oc5c4)c[nH]c3n2)c(OC)c1",
    "RECORDED VALUE": 37.7
  },
  {
    "COMPOUND": "Cn1ncnc1[C@H]1c2n[nH]c(=O)c3cc(F)cc(c23)N[C@@H]1c1ccc(F)cc1 + CNC(=O)c1ccc(Nc2nc(OC3CCCC3)c3c(-c4ccc5nc(C)oc5c4)c[nH]c3n2)c(OC)c1",
    "RECORDED VALUE": 26.8
  },
  {
    "COMPOUND": "CC(Nc1ccc2c(c1)OCCn1cc(N3C(=O)OCC3C(F)F)nc1-2)C(N)=O (stereo not given) + CN1CCN(c2cc(C(=O)Nc3cc4cc(-c5cnn(C)c5)ccc4cn3)ccn2)CC1",
    "RECORDED VALUE": 0.54
  },
  {
    "COMPOUND": "COc1cccc2c1C(=O)c1c(O)c3c(c(O)c1C2=O)CC(O)(C(=O)CO)CC3OC1CC(N)C(O)C(C)O1 (stereo not given) + CN1CCN(c2cc(C(=O)Nc3cc4cc(-c5cnn(C)c5)ccc4cn3)ccn2)CC1",
    "RECORDED VALUE": 0.91
  },
  {
    "COMPOUND": "CCc1c2c(nc3ccc(O)cc13)-c1cc3c(c(=O)n1C2)COC(=O)[C@]3(O)CC + CNC(=O)c1ccc(Nc2nc(OC3CCCC3)c3c(-c4ccc5nc(C)oc5c4)c[nH]c3n2)c(OC)c1",
    "RECORDED VALUE": 4.77
  }
]
